# pest or weed control per entry
tested on: Crabgrass (CG); assay: Pre-emergence herbicide test; format: in vivo, Digitaria sanquinalis; conditions: Digitaria sanguinalis, pre-emergence, 336 h; 2 lb/acre; two weeks after treatment
Write the number in % without appending the unit.

Line Notation: C=CCSc1nnc(NC(=O)NC)s1
pest or weed control / %: 60
//
Line Notation: CCN(C(=O)NC)c1nnc(C(F)(F)F)s1
pest or weed control / %: 90
//
Line Notation: CNC(=O)Nc1nnc(C(F)(F)C(F)(F)F)s1
pest or weed control / %: 50
//
Line Notation: CNC(=O)Nc1nnc(C(F)F)s1
pest or weed control / %: 80
//
Line Notation: CCCSc1nnc(N(C)C(=O)NC)s1
pest or weed control / %: 90
//
Line Notation: CCCSc1nnc(NC(=O)NC)s1
pest or weed control / %: 90
//
Line Notation: CNC(=O)N(C)c1nnc(C(C)(C)C)s1
pest or weed control / %: 90
//
Line Notation: CNC(=O)N(C)c1nnc(C(F)(F)F)s1
pest or weed control / %: 100
//
Line Notation: CCCS(=O)(=O)c1nnc(NC(=O)NC)s1
pest or weed control / %: 90
//
Line Notation: CCS(=O)(=O)c1nnc(NC(=O)NC)s1
pest or weed control / %: 90

Asked: Value lookup for pest or weed control; key = `CNC(=O)Nc1nnc(C(C)(C)C)s1`
Given back: 90

Asked: Another molecule to check: `CNC(=O)Nc1nnc(S(C)(=O)=O)s1`
Given back: 90

Asked: Another molecule to check: `CCCSc1nnc(N(C)C(=O)N(C)C)s1`
Given back: 30
